# Condition summary: human gut metagenome, 24 h, 2 µM; further: call rule not given here
Outcome measure: Bacterial Biotransformation

Worked set:
CC(C)(C)NC(=O)[C@H]1CC[C@H]2[C@@H]3CC[C@H]4NC(=O)C=C[C@]4(C)[C@H]3CC[C@]12C [FINASTERIDE]: Compound metabolized
Cc1cc(C)cc(OCC2CNC(=O)O2)c1 (configuration not stated) [METAXALONE]: Compound metabolized
N=C(N)NC(=O)Cc1c(Cl)cccc1Cl [GUANFACINE]: Compound NOT metabolized
CCCCC(=O)O[C@]1(C(=O)CO)[C@@H](C)C[C@H]2[C@@H]3CCC4=CC(=O)C=C[C@]4(C)[C@@]3(F)[C@@H](O)C[C@@]21C [BETAMETHASONE VALERATE]: Compound metabolized
CC(=O)OCC(=O)NCCCOc1cccc(CN2CCCCC2)c1 [ROXATIDINE ACETATE]: Compound metabolized
C#C[C@]1(OC(C)=O)CC[C@H]2[C@@H]3CCC4=CC(=O)CC[C@@H]4[C@H]3CC[C@@]21C [NORETHINDRONE ACETATE]: Compound metabolized

Would you mind giving Bacterial Biotransformation for every compound in the list below?
1. CN1CCC[C@@H]1CCO[C@](C)(c1ccccc1)c1ccc(Cl)cc1.O=C(O)/C=C/C(=O)O [CLEMASTINE FUMARATE]
2. OCCN(CCO)c1nc(N2CCCCC2)c2nc(N(CCO)CCO)nc(N3CCCCC3)c2n1 [DIPYRIDAMOLE]
3. COc1ccc([C@@H]2Sc3ccccc3N(CCN(C)C)C(=O)[C@@H]2OC(C)=O)cc1 [DILTIAZEM]
4. COc1ccnc(C[S+]([O-])c2nc3ccc(OC(F)F)cc3[nH]2)c1OC (configuration not stated) [PANTOPRAZOLE]
5. CCc1oc2ccccc2c1C(=O)c1cc(Br)c(O)c(Br)c1 [BENZBROMARONE]
6. CCCN1C[C@H](CSC)C[C@@H]2c3cccc4[nH]cc(c34)C[C@H]21.CS(=O)(=O)O [PERGOLIDE MESYLATE]

Compound metabolized
Compound NOT metabolized
Compound NOT metabolized
Compound metabolized
Compound metabolized
Compound NOT metabolized

Would you mind giving Bacterial Biotransformation for every compound in the list below?
1. Br.CN1CCC[C@@H]1Cc1c[nH]c2ccc(CCS(=O)(=O)c3ccccc3)cc12 [ELETRIPTAN HYDROBROMIDE]
2. CC1=C(CC(=O)O)c2cc(F)ccc2/C1=C\c1ccc([S+](C)[O-])cc1 (configuration not stated)
3. CN(CCOc1ccc(CC2SC(=O)NC2=O)cc1)c1ccccn1.O=C(O)/C=C\C(=O)O (configuration not stated) [ROSIGLITAZONE MALEATE]
4. CC1Cc2ccccc2N1NC(=O)c1ccc(Cl)c(S(N)(=O)=O)c1 (configuration not stated) [INDAPAMIDE]
5. CN(C)C(=O)Oc1cccc([N+](C)(C)C)c1.[Br-] [NEOSTIGMINE BROMIDE]
6. CN[C@H]1CC[C@@H](c2ccc(Cl)c(Cl)c2)c2ccccc21 [SERTRALINE]

["Compound NOT metabolized", "Compound metabolized", "Compound NOT metabolized", "Compound NOT metabolized", "Compound NOT metabolized", "Compound metabolized"]

Would you mind giving Bacterial Biotransformation for every compound in the list below?
1. O=C1CC2(CCCC2)CC(=O)N1CCCCN1CCN(c2ncccn2)CC1 [BUSPIRONE]
2. N#Cc1ccc2c(c1)N(CCCN1CCC(O)CC1)c1ccccc1S2 [PERICIAZINE]
3. CCN1CCCC1CNC(=O)c1cc(S(=O)(=O)CC)c(N)cc1OC (configuration not stated) [AMISULPRIDE]
4. CC(C)(C)NC[C@H](O)COc1nsnc1N1CCOCC1.O=C(O)/C=C\C(=O)O [TIMOLOL MALEATE]
5. CCOC(=O)C1=C[C@]2(CC)CCCN3CCc4c(n1c1ccccc41)[C@@H]32 [VINPOCETINE]
6. COc1ccc(C(CN(C)C)C2(O)CCCCC2)cc1 (configuration not stated) [VENLAFAXINE]
7. CC#CCn1c(N2CCC[C@@H](N)C2)nc2c1c(=O)n(Cc1nc(C)c3ccccc3n1)c(=O)n2C [LINAGLIPTIN]

["Compound metabolized", "Compound NOT metabolized", "Compound NOT metabolized", "Compound NOT metabolized", "Compound NOT metabolized", "Compound NOT metabolized", "Compound NOT metabolized"]

Would you mind giving Bacterial Biotransformation for every compound in the list below?
1. CCOC(=O)[C@H](CCc1ccccc1)N[C@@H](C)C(=O)N1CCC[C@H]1C(=O)O.O=C(O)/C=C\C(=O)O [ENALAPRIL MALEATE]
2. Nc1nc(NC2CC2)c2ncn([C@H]3C=C[C@@H](CO)C3)c2n1.Nc1nc(NC2CC2)c2ncn([C@H]3C=C[C@@H](CO)C3)c2n1.O=S(=O)(O)O [ABACAVIR SULFATE]
3. Br.COc1ccc2c(c1)[C@]13CCCC[C@@H]1[C@H](C2)N(C)CC3.O [DEXTROMETHORPHAN HYDROBROMIDE]
4. CCOc1cc(CC(=O)N[C@@H](CC(C)C)c2ccccc2N2CCCCC2)ccc1C(=O)O [REPAGLINIDE]

1: Compound NOT metabolized; 2: Compound NOT metabolized; 3: Compound NOT metabolized; 4: Compound metabolized

Would you mind giving Bacterial Biotransformation for every compound in the list below?
1. C[C@]12C=CC(=O)C=C1CC[C@@H]1[C@@H]2C(=O)C[C@@]2(C)[C@H]1CC[C@]2(O)C(=O)CO [PREDNISONE]
2. CC(=O)OCC(CCn1cnc2cnc(N)nc21)COC(C)=O [FAMCICLOVIR]
3. CC(C)(C)NCC(O)c1cc(Cl)c(N)c(Cl)c1 (configuration not stated) [CLENBUTEROL]

1. Compound metabolized
2. Compound metabolized
3. Compound NOT metabolized
